Recorded Emax by entry
Molecular target: p53 Y220C (Homo sapiens, UniProt P04637, Y220C)
Assay: Luciferase Reporter Assay (Luc), p53 response element, NClH1299 cells with inducible p53 Y220C
Type: cell-based
Settings: luciferase reporter, NClH1299 inducible p53 Y220C, 6 hour; 10 uM tool compound as positive control

# SMILES STRING, Emax
data = [
    ("COc1cc(S(N)(=O)=O)ccc1NCC#Cc1nc2c(N[C@@H]3CCN(C)C[C@@H]3F)cccn2c1CC(F)(F)F", "70 to 80%"),
    ("CCc1cc(C(=O)NC)ccc1NCC#Cc1nc2c(N[C@@H]3CCN(C)C[C@@H]3F)cccn2c1CC(F)(F)F", "70 to 80%"),
    ("CNC(=O)c1ccc(NCC#Cc2nc3c(N[C@@H]4CCN(C)C[C@@H]4F)cccn3c2CC(F)(F)F)c(Cl)c1", "> 90%"),
    ("CNC(=O)c1ccc(OC)c(NCC#Cc2cc3c(N[C@@H]4CN(C)C[C@@H]4F)nccn3c2SC(F)(F)F)n1", "80 to 90%"),
    ("CNC(=O)c1ccc(NCC#Cc2nc3c(N[C@@H]4CCN(C)C[C@@H]4F)cccn3c2CC(F)(F)F)c(OC(F)F)c1", "70 to 80%"),
    ("CNC(=O)c1ccc(N[C@H](C)C#Cc2nc3c(N[C@@H]4CCN(C)C[C@@H]4F)cccn3c2SC(F)(F)F)c(OC)c1", "> 90%"),
    ("CCS(=O)(=O)c1ccc(NCC#Cc2nc3c(N[C@@H]4CCN(C)C[C@@H]4F)cccn3c2SC(F)(F)F)c(OC)c1", "80 to 90%"),
    ("COc1cc(S(C)(=O)=O)ccc1NCC#Cc1nc2c(NC3CCN(CC(C)(C)O)CC3)cccn2c1CC(F)(F)F", "70 to 80%"),
]

---

Molecular target: p53 Y220C (Homo sapiens, UniProt P04637, Y220C)
Test: Luciferase Reporter Assay (Luc), p53 response element, NClH1299 cells with inducible p53 Y220C
Assay type: cell-based
Conditions: luciferase reporter, NClH1299 inducible p53 Y220C, 6 hour; read-out: Luc P53 Y220C AC50
Description: Luciferase Reporter Assay Protocol The cells were then used for p53 reporter assay. 5,000 cells were seeded in each well of 384 plate and cultured in 0.5 ug/mL doxycycline (D3072; Sigma) containing medium for 24 hours before compound treatment. […] The luciferase activity was immediately measured with PheraStar microplate reader.
Counter-ions that a name gives are not always drawn.
Reported AC50 values follow for various molecules
METRIC: AC50

# MOLECULE, METRIC, MEAS VALUE
records = [
    ("C=CC(=O)Nc1cc(NC2CCN(C)CC2)c2nc(C#CCNc3ccc(C(=O)NC)cc3OC)c(CC(F)(F)F)n2c1", "AC50", "> 3000 nM"),
    ("COc1cc(P(C)(C)=O)ccc1NCC#Cc1cc2c(N[C@@H]3CCN(C)C[C@@H]3F)nccn2c1SC(F)(F)F", "AC50", "< 750 nM"),
    ("CNC(=O)c1cc(NCC#Cc2nc3c(N[C@@H]4CCN(C)C[C@@H]4F)cccn3c2SC(F)(F)F)c(OC)cc1F", "AC50", "< 750 nM"),
    ("CNC(=O)c1ccc(O)c(NCC#Cc2cc3c(N[C@@H]4CCN(C)C[C@@H]4F)nccn3c2SC(F)(F)F)c1", "AC50", "< 750 nM"),
    ("COc1cc(S(C)(=O)=O)ccc1NCC#Cc1nc2c(NC3CCN(C4CC4)CC3)cccn2c1CC(F)(F)F", "AC50", "> 3000 nM"),
    ("COc1cc(S(C)(=O)=O)ccc1NCC#Cc1nc2c(NC3CCS(=O)(=O)CC3)cccn2c1CC(F)(F)F", "AC50", "> 3000 nM"),
    ("CNC(=O)c1ccc(NCC#Cc2nc3c(N[C@@H]4CCn5cncc5C4)cccn3c2SC(F)(F)F)c(OC)c1", "AC50", "750 to 1500 nM"),
    ("CNC(=O)c1ccc(OC)c(NCC#Cc2cc3c(N[C@@H]4CNC[C@@H]4F)nccn3c2SC(F)(F)F)c1", "AC50", "< 750 nM"),
    ("CNC(=O)c1ccc(NCC#Cc2nc3c(NC4CCN(C)CC4)cc(NC(=O)OC(C)(C)C)cn3c2CC(F)(F)F)c(OC)c1", "AC50", "> 3000 nM"),
    ("CN1CC[C@@H](Nc2cccn3c(CC(F)(F)F)c(C#CCCN)nc23)[C@@H](F)C1", "AC50", "> 3000 nM"),
    ("C=CC(=O)N(C)c1c(C#CCNc2ccc(C(=O)NC)cc2OC)nc2c(N[C@@H]3CCN(C)C[C@@H]3F)cccn12", "AC50", "> 3000 nM"),
    ("CNC(=O)c1cc(NCC#Cc2nc3c(N[C@@H]4CCN(C)C[C@@H]4F)cccn3c2SC(F)(F)F)c(OC)cn1", "AC50", "< 750 nM"),
    ("CNC(=O)c1ccc(NCC#Cc2nc3c(N[C@H]4CCc5nncn5C4)cccn3c2SC(F)(F)F)c(OC)c1", "AC50", "> 3000 nM"),
    ("COc1cc(S(C)(=O)=O)ccc1NCC#Cc1nc2c(NC3CCN(C)CC3)cc(-c3ccccc3)cn2c1CC(F)(F)F [Example 34, formic acid salt]", "AC50", "> 3000 nM"),
    ("COc1cc2n[nH]cc2cc1NCC#Cc1nc2c(N[C@@H]3CCN(C)C[C@@H]3F)cccn2c1SC(F)(F)F", "AC50", "< 750 nM"),
    ("CNC(=O)c1ccc(N[C@H](C)C#Cc2nc3c(N[C@@H]4CCN(C)C[C@@H]4F)cccn3c2SC(F)(F)F)c(OC)c1", "AC50", "> 3000 nM"),
    ("CCc1cc(C(=O)NC)ccc1NCC#Cc1nc2c(N[C@@H]3CCN(C)C[C@@H]3F)cccn2c1CC(F)(F)F", "AC50", "> 3000 nM"),
    ("CNC(=O)c1ccc(NCC#Cc2nc3c(N[C@H]4CCn5nccc5C4)cccn3c2SC(F)(F)F)c(OC)c1", "AC50", "1500 to 3000 nM"),
    ("CNC(=O)c1ccc(OC)c(NCC#Cc2nc3c(N[C@H]4C[C@@H]5CC[C@H]([C@H]4F)N5C)cccn3c2SC(F)(F)F)c1", "AC50", "< 750 nM"),
    ("CNC(=O)c1ccc(NCC#Cc2nc3c(N[C@H]4CCN(C)CC4(F)F)cccn3c2CC(F)(F)F)c(OC)c1 (single isomer, unassigned)", "AC50", "> 3000 nM"),
    ("COc1cc(S(C)(=O)=O)ccc1NCC#Cc1nc2c(N[C@@H]3C[C@H]4CC[C@H](N4)[C@@H]3F)cccn2c1SC(F)(F)F", "AC50", "< 750 nM"),
    ("CNC(=O)c1ccc(OC)c(NCC#Cc2nc3c(N[C@@H]4CCN(C)C[C@@H]4F)cccn3c2SC(F)(F)F)n1", "AC50", "< 750 nM"),
    ("CN1CC[C@@H](Nc2cccn3c(CC(F)(F)F)c(C#C[C@@H](O)c4ccccc4)nc23)[C@@H](F)C1", "AC50", "> 3000 nM"),
    ("CCNC(=O)c1ccc(NCC#Cc2nc3c(N[C@@H]4CCN(C)C[C@@H]4F)cccn3c2CC(F)(F)F)c(OC)c1", "AC50", "> 3000 nM"),
    ("CNC(=O)c1ccc(OC)c(NCC#Cc2nc3c(N[C@@H]4CN(C)C[C@@H]4F)cccn3c2SC(F)(F)F)n1", "AC50", "< 750 nM"),
    ("COc1ccc(C(N)=O)cc1NCC#Cc1nc2c(N[C@@H]3CCN(C)C[C@@H]3F)cccn2c1SC(F)(F)F", "AC50", "< 750 nM"),
    ("COc1ccc(-c2ncc[nH]2)cc1NCC#Cc1nc2c(N[C@@H]3CCN(C)C[C@@H]3F)cccn2c1SC(F)(F)F", "AC50", "< 750 nM"),
]
